Test: inhibitors of E-selectin induction by TNFa, primary screen, imaging, HUVEC, immunofluorescence, MLSMR starter and 10KST1 sets (AID 487);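 also: 100% = median nuclei count of all wells on the same plate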
Conditions: HUVEC TNFalpha-induced E-selectin immunofluorescence imaging, at 2 µM; measured here: cell number, toxicity
nuclei count for assorted compounds

{"Compound": "Cc1cc(=O)oc2cc(OCCSCCN3CCOCC3)ccc12", "nuclei count": "162%"}
{"Compound": "N=c1c2c(-c3ccccc3)c(-c3ccccc3)n(Cc3ccccc3)c2ncn1CCCn1ccnc1", "nuclei count": "142%"}
{"Compound": "CCCSC1=C(C#N)C(c2ccc(OC)cc2)C2=C(CC(C)(C)CC2=O)N1 (stereo not given)", "nuclei count": "160%"}
{"Compound": "CC1Cc2ccccc2N1NC(=O)c1ccc(Cl)c(S(N)(=O)=O)c1 (stereo not given)", "nuclei count": "121%"}
{"Compound": "CCn1cc(C(=O)NCC2CCCO2)c(=O)c2cc(F)c(N3CCN(C)CC3)cc21 (stereo not given)", "nuclei count": "188%"}
{"Compound": "COc1ccc(/C=C/C(=O)Nc2ccccc2C(=O)O)cc1OC", "nuclei count": "128%"}
{"Compound": "CC(C)(C)OC(=O)N1CC=C2C(C#N)=C(N)C(C#N)(C#N)[C@H](c3cccnc3)[C@H]2C1", "nuclei count": "112%"}
{"Compound": "CC(C)CC(=O)Nc1ccccc1N1CCCC1", "nuclei count": "101%"}
{"Compound": "COC(=O)CN(c1nc(C)cc(OC)n1)S(=O)(=O)c1ccccc1", "nuclei count": "122%"}
{"Compound": "COc1cccc(-c2nnc3sc(-c4ccc(C)cc4)nn23)c1", "nuclei count": "121%"}
